- Tested on: H460M Human lung carcinoma/metastatic
- TEST DETAILS: IC50 on tumor cell lines, MTT test, H460M
- Assay type: cell-based
- EXPERIMENTAL CONDITIONS: Homo sapiens, 72 h, 3 days treatment, two separate experiments
pIC50: −log10 of the molar value.
METRIC: pIC50

Prompt line: Find the recorded pIC50 belonging to C=C(CC)C(=O)c1ccc(OCC(=O)O)c(Cl)c1Cl [Ethacrynic acid, reference compound] and report it.
Response line: 4.20 to 4.24

* * *

- Tested on: HT-29 Human colorectal carcinoma
- TEST DETAILS: IC50 on tumor cell lines, MTT test, HT-29
- Format: cell-based
- EXPERIMENTAL CONDITIONS: Homo sapiens, 72 h, HT-29, 3 days treatment, two separate experiments
pIC50: −log10 of the molar value.
METRIC: pIC50

Prompt line: Find the recorded pIC50 belonging to C=C(CC)C(=O)c1ccc(OCC(=O)O)c(Cl)c1Cl [Ethacrynic acid, reference compound] and report it.
Response line: 4.36 to 4.45
